biological target: hLDHA (Homo sapiens, UniProt P00338); construct: purchased Abcam; test: hLDHA enzymatic assay (kinetic fluorometric, pyruvate substrate, NADH co-factor); type: biochemical; conditions: hLDHA, 1 mM pyruvate, 151 µM β-NADH, compounds 0.048–100 µM, n = 3
Please respond with y when measured IC50 is strictly beneath 30 µM, and with n in all other cases.

Compound: O=c1[nH]c2ccccc2cc1CSc1ccc(Nc2nccc(-c3ccc(Cl)cc3)n2)cc1 [Compound 28a]
Assigned class: n

Compound: O=c1[nH]c2ccc(Cl)cc2cc1CSc1ccccc1Nc1nccc(-c2ccc3ccccc3c2)n1 [Compound 26b]
Assigned class: y

Compound: O=c1[nH]c2ccc(Cl)cc2cc1CSc1ccc(Nc2nccc(-c3ccc4c(c3)OCO4)n2)cc1 [Compound 31b]
Assigned class: n

Compound: COc1ccc2[nH]c(=O)c(CSc3ccccc3Nc3nccc(-c4ccc(Cl)cc4)n3)cc2c1 [Compound 24c]
Assigned class: n

Compound: O=c1[nH]c2ccccc2cc1CSc1ccccc1Nc1nccc(-c2ccc(Cl)cc2)n1 [Compound 24a]
Assigned class: n

Compound: COc1ccc2[nH]c(=O)c(CSc3ccc(Nc4nccc(-c5ccc6ccccc6c5)n4)cc3)cc2c1 [Compound 30c]
Assigned class: n

Compound: O=c1[nH]c2ccc(Cl)cc2cc1CSc1ccc(Nc2nccc(-c3ccc(Cl)cc3)n2)cc1 [Compound 28b]
Assigned class: n

Compound: O=c1[nH]c2ccccc2cc1COc1ccccc1Oc1nccc(-c2ccc(Cl)cc2)n1
Assigned class: n

Compound: O=c1[nH]c2ccc(Cl)cc2cc1CSc1ccccc1Nc1nccc(-c2ccc3c(c2)OCO3)n1 [Compound 27b]
Assigned class: n

Compound: O=c1[nH]c2ccc(Cl)cc2cc1CSc1ccc(Nc2nccc(-c3ccc(C(F)(F)F)cc3)n2)cc1 [Compound 29b]
Assigned class: n

Compound: O=c1[nH]c2ccc(Cl)cc2cc1CSc1cccc(Nc2nccc(-c3ccc4ccccc4c3)n2)c1 [Compound 35b]
Assigned class: y

Compound: O=c1[nH]c2ccccc2cc1CSc1ccccc1Nc1nccc(-c2ccc3c(c2)OCO3)n1 [Compound 27a]
Assigned class: n

Compound: COc1ccc2[nH]c(=O)c(CSc3ccccc3Nc3nccc(-c4ccc5ccccc5c4)n3)cc2c1 [Compound 26c]
Assigned class: y

Compound: O=c1[nH]c2ccccc2cc1CSc1ccccc1Nc1nccc(-c2ccc(C(F)(F)F)cc2)n1 [Compound 25a]
Assigned class: y
